- Test system: U2OS
- assay_procedure: Incucyte cell viability with U2OS; note: unitless GR value; below 1 slowed growth and below 0 cell loss
- Format: toxicity, cell-based
- condition_set: human, 0 h, 10 µM, compound concentration 10 uM, replicate number 2
Response field label: string, one of Yes (Growth Rate strictly below -0.2) or No.

compound	discrete_label
CN[C@@H](C)C(=O)N[C@H]1CCCC[C@H]2CC[C@@H](C(=O)N[C@@H](c3ccccc3)c3cn(CCCCc4ccc(CCCCn5cc([C@@H](NC(=O)[C@@H]6CC[C@@H]7CCCC[C@H](NC(=O)[C@H](C)NC)C(=O)N76)c6ccccc6)nn5)cc4)nn3)N2C1=O	Yes
N#Cc1ccc(C#CC[C@@H](C#N)NC(=O)[C@@H]2CCCCN2)cc1F	No
CN(C)C(=O)Cn1cc(-c2nc([C@@](C)(c3ccc(-c4cnc(N)nc4)cc3)C3CC3)no2)cn1	No
CN(C)C/C=C/C(=O)Nc1cc2c(Nc3ccc(F)c(Cl)c3)ncnc2cc1OC[C@@H]1CCCO1	No

Is Growth Rate strictly under -0.2 for the entry CC(C)N1CCN(Cc2cnc(-c3cc(-c4cccc5[nH]ccc45)cc4[nH]ncc34)o2)CC1 ?
No

Could you do the same for Cc1[nH]nc2ccc(-c3cncc(OCC(N)Cc4c[nH]c5ccccc45)c3)cc12 (configuration not stated) , please?
No

Could you do the same for CN(C)CCOc1ccc(/C(=C(/CCCO)c2ccccc2)c2ccc(O)cc2)cc1 , please?
Yes

Could you do the same for COc1cc(O)c(C(CC(=O)N2C[C@H](C)C[C@H](C)C2)c2ccc3c(c2)OCO3)c(OC)c1 (some centres not stated) , please?
No

Could you do the same for O=C1COc2cc(C(=O)N(Cc3ccc(C(=O)Nc4ccncn4)cc3)C3CC3)ccc2N1 , please?
No

Could you do the same for Nc1ncc2c(n1)-c1c([nH]c3ccc(C4=CCOCC4)cc13)CCC2 , please?
No

Could you do the same for COc1cc(N2CCN(C)CC2)ccc1Nc1nccc(-c2cn(C)c3cnccc23)n1 , please?
Yes

Could you do the same for O=C(Nc1ccc(Cl)nc1)c1ccc(Cl)cc1 , please?
Yes

Could you do the same for COc1cc(Cl)c(C(=O)N[C@@H](CN[C@H]2CC[C@@H](N)CC2)Cc2ccc(C#N)cc2)cc1-c1ccc(CN[C@H](C)c2ccc(C)cc2)o1 , please?
Yes

Could you do the same for CCn1c(-c2ccncc2)cc2c1CCNC2=O , please?
No

Could you do the same for COc1ccccc1[C@@H]1CNCCC12CCN(C(=O)[C@](OC)(c1ccccc1)C(F)(F)F)CC2 , please?
No

Could you do the same for O=C1N=C(NCc2cccs2)S/C1=C\c1ccc2ncccc2c1 , please?
Yes

Could you do the same for CCOC(=O)C1=C(C)NC(C)=C(C(=O)OC)C1c1cccc([N+](=O)[O-])c1 (configuration not stated) , please?
Yes

* * *

- Tested on: Fibroblast
- assay_procedure: Incucyte cell viability with human fibroblast; note: unitless GR value; below 1 slowed growth and below 0 cell loss
- Format: toxicity, cell-based
- condition_set: 12 h, 10 µM, compound concentration 10 uM, replicate number 2
Using Growth Rate as the sorting value, the categories are bin A = under 0.2, bin B = from 0.2 up to 0.6, bin C = 0.6 and over

Sample answers from the record:
molecule	discrete_label
Cc1nc2ccc(Cl)cc2c(-c2ccccc2)c1CC(=O)O.Cl	bin B
CCN1CCN(Cc2ccc(NC(=O)c3ccc(C)c(NC(=O)c4cncc(-c5cccs5)c4)c3)cc2C(F)(F)F)CC1	bin A

For this molecule, which bin applies? CCOc1ccc(S(=O)(=O)Nc2ccc(Cl)cc2C#Cc2cnc(C(=O)[O-])cc2OC)c2ncccc12.[K+]
bin B

Could you do the same for CC(C)(C#Cc1ccc(NC(=O)COc2ccccc2C(=O)c2ccccc2)c(Cl)c1)C(=O)O [BI 2439] , please?
bin C

Could you do the same for O=C(Nc1ccccc1Cl)c1cnc2ccc(C3CCNCC3)cn12.O=C(O)C(=O)O , please?
bin A

Could you do the same for Nc1ncc2c(n1)-c1c([nH]c3ccc(C4CC4)cc13)CCCC2 , please?
bin C

Could you do the same for COc1ccc(CCN(C)CCCC(C#N)(c2cc(OC)c(OC)c(OC)c2)C(C)C)cc1OC.Cl (stereo not given) [GALLOPAMIL HYDROCHLORIDE] , please?
bin A

Cited source: ChEMBL document CHEMBL5303304
